test system: SF-295; test: NCI tumour cell line growth inhibition, 48 h
Active and inactive are the calls of the source. Cut-off read from the data, not from the text of the source: active = GI50 up to about 1.1 µM and inactive = higher.
Observable: GI50

Worked examples, 2 compounds total:
>>> print(df.to_string())
                                   compound  measured_target              result
0  C=CCC1(O)CC(n2cc(C)c(=O)[nH]c2=O)OC1CO[Si](C)(C)C(C)(C)C (stereo not drawn)           SF-295  42.9 µM (inactive)
1            O=C1Cc2cc3ccccc3nc2-c2ccccc2N1           SF-295  85.5 µM (inactive)

Proceed to the following item.
GI50 measured on COc1cc2c(cc1OC)[Se]c1cc(OC)c(OC)cc1[Se]2 = 18.3 µM (inactive)
